Consider the following compounds; for each one, report its IC50.
assaySystem: 72 kDa type IV collagenase (Homo sapiens)
Sequence (P08253 whole entry): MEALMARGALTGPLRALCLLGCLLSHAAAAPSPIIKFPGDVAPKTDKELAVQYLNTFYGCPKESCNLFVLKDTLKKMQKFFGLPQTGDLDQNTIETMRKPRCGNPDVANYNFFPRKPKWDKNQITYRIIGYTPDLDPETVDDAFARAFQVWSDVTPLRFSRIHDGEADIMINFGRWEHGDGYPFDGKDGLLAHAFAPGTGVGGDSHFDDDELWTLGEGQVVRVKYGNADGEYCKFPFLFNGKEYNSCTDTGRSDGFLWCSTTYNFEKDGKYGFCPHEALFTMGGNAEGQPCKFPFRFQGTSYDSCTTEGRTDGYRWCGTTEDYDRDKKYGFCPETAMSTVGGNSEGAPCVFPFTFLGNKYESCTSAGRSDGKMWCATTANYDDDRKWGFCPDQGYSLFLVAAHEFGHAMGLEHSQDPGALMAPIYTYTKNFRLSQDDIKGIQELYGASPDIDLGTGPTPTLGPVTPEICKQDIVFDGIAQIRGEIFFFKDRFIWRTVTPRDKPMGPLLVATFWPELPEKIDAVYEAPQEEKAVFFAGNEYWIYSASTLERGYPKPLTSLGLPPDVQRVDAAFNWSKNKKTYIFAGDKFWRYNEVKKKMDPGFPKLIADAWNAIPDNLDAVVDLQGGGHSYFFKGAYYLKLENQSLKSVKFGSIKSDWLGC
assay: Inhibition of MMP2 using Mca-Pro-cyclohexyl-Ala-Gly-Nva-His-Ala- Dap(Dnp)-NH2 as substrate by fluorometric analysis
recordedConditions: read-out: pIC50 (converted)
Only the number, expressed in µM, is required.

I'd like to know its IC50. The compound in question is CNC(=O)N1CCC(NC(=O)c2ccc(Oc3ccc(C#C[C@]4(O)CN5CCC4CC5)cc3)cc2)CC1
3.98

I'd like to know its IC50. The compound in question is CC[C@@H](C)NC(=O)c1ccc(Oc2ccc(C#C[C@]3(O)CN4CCC3CC4)cc2)cc1
6.31

I'd like to know its IC50. The compound in question is O=C(NCc1ccncc1)c1ccc(Oc2ccc(C#C[C@]3(O)CN4CCC3CC4)cc2)cc1
6.31

I'd like to know its IC50. The compound in question is CS(=O)(=O)Oc1cccc(CNC(=O)c2ccc(Oc3ccc(C#C[C@]4(O)CN5CCC4CC5)cc3)cc2)c1
7.94

I'd like to know its IC50. The compound in question is O=C(NCc1ccnc2ccccc12)c1ccc(Oc2ccc(C#C[C@]3(O)CN4CCC3CC4)cc2)cc1
2

I'd like to know its IC50. The compound in question is COc1ccc(CNC(=O)c2ccc(Oc3ccc(C#C[C@]4(O)CN5CCC4CC5)cc3)cc2)cc1OC
1.26

I'd like to know its IC50. The compound in question is CC(=O)N1CCC(NC(=O)c2ccc(Oc3ccc(C#C[C@]4(O)CN5CCC4CC5)cc3)cc2)CC1
5.01

I'd like to know its IC50. The compound in question is O=C(NC1CCCS(=O)(=O)C1)c1ccc(Oc2ccc(C#C[C@]3(O)CN4CCC3CC4)cc2)cc1 (single isomer, unassigned; diastereomer 2)
2.51

I'd like to know its IC50. The compound in question is O=C(NC1CCN(C2CC2)CC1)c1ccc(Oc2ccc(C#C[C@]3(O)CN4CCC3CC4)cc2)cc1
7.94

I'd like to know its IC50. The compound in question is CS(=O)(=O)c1cccc(CNC(=O)c2ccc(Oc3ccc(C#C[C@]4(O)CN5CCC4CC5)cc3)cc2)c1
7.94

I'd like to know its IC50. The compound in question is O=C(NCc1ccc(F)cc1)c1ccc(Oc2ccc(C#C[C@]3(O)CN4CCC3CC4)cc2)cc1
6.31

I'd like to know its IC50. The compound in question is Cc1cc(CN(C)C(=O)c2ccc(Oc3ccc(C#C[C@]4(O)CN5CCC4CC5)cc3)cc2)on1
7.94

I'd like to know its IC50. The compound in question is COc1cc(CNC(=O)c2ccc(Oc3ccc(C#C[C@]4(O)CN5CCC4CC5)cc3)cc2)cc(OC)c1
7.94

I'd like to know its IC50. The compound in question is CS(=O)(=O)N1CCC(NC(=O)c2ccc(Oc3ccc(C#C[C@]4(O)CN5CCC4CC5)cc3)cc2)CC1
7.94

I'd like to know its IC50. The compound in question is O=C(NCc1ccccc1)c1ccc(Oc2ccc(C#C[C@]3(O)CN4CCC3CC4)cc2)cc1
7.94

I'd like to know its IC50. The compound in question is O=C(NC1CCN(C(=O)C2CC2)CC1)c1ccc(Oc2ccc(C#C[C@]3(O)CN4CCC3CC4)cc2)cc1
6.31

I'd like to know its IC50. The compound in question is O=C(NC1CCS(=O)(=O)C1)c1ccc(Oc2ccc(C#C[C@]3(O)CN4CCC3CC4)cc2)cc1 (some centres undefined)
7.94

I'd like to know its IC50. The compound in question is COc1ccc(CNC(=O)c2ccc(Oc3ccc(C#C[C@]4(O)CN5CCC4CC5)cc3)cc2)c(OC)c1
6.31

I'd like to know its IC50. The compound in question is C[C@@H](NC(=O)c1ccc(Oc2ccc(C#C[C@]3(O)CN4CCC3CC4)cc2)cc1)c1ccncc1
3.98

I'd like to know its IC50. The compound in question is O=C(NCC1CCCCC1)c1ccc(Oc2ccc(C#C[C@]3(O)CN4CCC3CC4)cc2)cc1
5.01

I'd like to know its IC50. The compound in question is CNC(=O)c1ccc(Oc2ccc(C#C[C@]3(O)CN4CCC3CC4)cc2)cc1
20

----------
Consider the following compounds; for each one, report its clearance.
assay: Clearance in dog at 1 mg/kg, iv and 1 mg/kg, po
Assay type: ADME, organism-based, Canis lupus familiaris
recordedConditions: in vivo
Only the number, expressed in mL/min/kg, is required.

I'd like to know its clearance. The compound in question is O=C(NC1CCCS(=O)(=O)C1)c1ccc(Oc2ccc(C#C[C@]3(O)CN4CCC3CC4)cc2)cc1 (single isomer, unassigned; diastereomer 1)
13

I'd like to know its clearance. The compound in question is CN1CCC(NC(=O)c2ccc(Oc3ccc(C#C[C@]4(O)CN5CCC4CC5)cc3)cc2)CC1
3.6

----------
assaySystem: Collagenase 3 (Homo sapiens, UniProt P45452)
assay: Inhibition of recombinant human MMP13 using Mca-Pro-cyclohexyl-Ala-Gly-Nva-His-Ala- Dap(Dnp)-NH2 as substrate by fluorometric analysis
recordedConditions: read-out: IC50
recordedMetric: IC50
Answer format: number, then unit.

I'd like to know its IC50. The compound in question is CN1CCC(NC(=O)c2ccc(Oc3ccc(C#C[C@]4(O)CN5CCC4CC5)cc3)cc2)CC1
0.074 µM

----------
assaySystem: Collagenase 3 (Homo sapiens)
assay: Inhibition of recombinant human MMP13 using Mca-Pro-cyclohexyl-Ala-Gly-Nva-His-Ala- Dap(Dnp)-NH2 as substrate by fluorometric analysis
recordedConditions: read-out: pIC50 (converted)
Consider the following compounds; for each one, report its IC50.
Answer format: number, then unit.

I'd like to know its IC50. The compound in question is COc1ccc(CNC(=O)c2ccc(Oc3ccc(C#C[C@]4(O)CN5CCC4CC5)cc3)cc2)c(OC)c1
39.8 nM

I'd like to know its IC50. The compound in question is Cc1cc(CN(C)C(=O)c2ccc(Oc3ccc(C#C[C@]4(O)CN5CCC4CC5)cc3)cc2)on1
79.4 nM

I'd like to know its IC50. The compound in question is COc1ccc(CNC(=O)c2ccc(Oc3ccc(C#C[C@]4(O)CN5CCC4CC5)cc3)cc2)nc1
31.6 nM

----------
assaySystem: Cytochrome P450 2C19 (Homo sapiens, UniProt P33261)
Sequence (P33261 whole entry): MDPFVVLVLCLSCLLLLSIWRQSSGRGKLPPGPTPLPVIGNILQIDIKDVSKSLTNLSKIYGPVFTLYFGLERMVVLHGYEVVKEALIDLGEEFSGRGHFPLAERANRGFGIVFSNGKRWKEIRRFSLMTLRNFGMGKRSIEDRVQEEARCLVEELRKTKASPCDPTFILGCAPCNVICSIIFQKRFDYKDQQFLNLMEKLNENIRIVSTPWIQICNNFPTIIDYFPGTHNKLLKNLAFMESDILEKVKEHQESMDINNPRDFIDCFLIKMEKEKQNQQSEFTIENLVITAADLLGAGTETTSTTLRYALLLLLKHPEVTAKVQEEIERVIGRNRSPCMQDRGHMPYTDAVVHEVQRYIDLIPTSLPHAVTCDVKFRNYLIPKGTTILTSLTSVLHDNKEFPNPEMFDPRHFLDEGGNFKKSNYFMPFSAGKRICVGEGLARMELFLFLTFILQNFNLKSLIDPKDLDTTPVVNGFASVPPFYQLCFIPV
assay: Inhibition of CYP2C19
Type: ADME
recordedConditions: read-out: IC50
pIC50: −log10 of the molar value.
recordedMetric: pIC50

I'd like to know its pIC50. The molecule in question is O=C(NC1CCCS(=O)(=O)C1)c1ccc(Oc2ccc(C#C[C@]3(O)CN4CCC3CC4)cc2)cc1 (single isomer, unassigned; diastereomer 1)
< 5.00

----------
Consider the following compounds; for each one, report its fraction unbound.
assay: Fraction unbound in human
Type: ADME, organism-based
recordedConditions: in vivo
Output: the number by itself.

I'd like to know its fraction unbound. The compound in question is CNC(=O)c1ccc(Oc2ccc(C#C[C@]3(O)CN4CCC3CC4)cc2)cc1
0.24

I'd like to know its fraction unbound. The compound in question is CN1CCC(NC(=O)c2ccc(Oc3ccc(C#C[C@]4(O)CN5CCC4CC5)cc3)cc2)CC1
0.41

I'd like to know its fraction unbound. The compound in question is O=C(NC1CCCS(=O)(=O)C1)c1ccc(Oc2ccc(C#C[C@]3(O)CN4CCC3CC4)cc2)cc1 (single isomer, unassigned; diastereomer 1)
0.25

----------
assaySystem: Matrix metalloproteinase-19 (Homo sapiens, UniProt Q99542)
Sequence (Q99542 whole entry): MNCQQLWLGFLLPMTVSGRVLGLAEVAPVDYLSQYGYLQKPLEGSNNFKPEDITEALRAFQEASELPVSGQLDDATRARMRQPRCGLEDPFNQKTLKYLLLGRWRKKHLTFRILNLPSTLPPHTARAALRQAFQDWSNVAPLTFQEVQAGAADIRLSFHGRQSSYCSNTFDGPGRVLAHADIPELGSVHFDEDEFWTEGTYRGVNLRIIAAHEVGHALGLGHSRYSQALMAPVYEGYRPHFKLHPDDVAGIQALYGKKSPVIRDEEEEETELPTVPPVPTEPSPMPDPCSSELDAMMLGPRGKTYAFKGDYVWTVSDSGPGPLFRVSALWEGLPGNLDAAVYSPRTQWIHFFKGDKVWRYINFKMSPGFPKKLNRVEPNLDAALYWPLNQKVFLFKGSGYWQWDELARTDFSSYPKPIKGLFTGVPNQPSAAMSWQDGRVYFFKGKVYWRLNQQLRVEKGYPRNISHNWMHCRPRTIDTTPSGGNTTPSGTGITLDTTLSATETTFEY
pIC50: −log10 of the molar value.
recordedMetric: pIC50

I'd like to know its pIC50. The compound in question is O=C(NC1CCCS(=O)(=O)C1)c1ccc(Oc2ccc(C#C[C@]3(O)CN4CCC3CC4)cc2)cc1 (single isomer, unassigned; diastereomer 1)
< 5.00
